molecular target: DNA gyrase (Escherichia coli) (UniProt P0AES6+P0AES4); assay: In vitro antibacterial activity against gram-negative organism […] ATCC 13048; type: functional; conditions: Enterobacter aerogenes
MEASUREMENT_NAME: log10 of MIC (log10 of the value in µg/mL)

* CN1CCN(c2nc3c(-c4ccc(F)cc4F)cc(C(=O)O)c(=O)n3cc2F)CC1 | -0.11
* Cc1c(N2CC[C@@H]([C@@H](C)N)C2)c(F)cn2c(=O)c(C(=O)O)cc(C3CC3)c12 | -2.00
* Cc1c(N2CCC(N)C2)c(F)cn2c(=O)c(/C(O)=C/[N+](=O)[O-])cc(C3CC3)c12 (centres undefined) | -1.00
* Cc1c(N2CCC(CN)C2)c(F)cn2c(=O)c(C(=O)O)cc(C3CC3)c12 (centres undefined) | -2.00
* CCc1c(N2CCC(N)C2)c(F)cn2c(=O)c(C(=O)O)cc(C3CC3)c12 (centres undefined) | -0.41
* Cc1c(N2C[C@@H]3CCCN[C@@H]3C2)c(F)cn2c(=O)c(C(=O)O)cc(C3CC3)c12 (stereo in doubt; (S,S)45n) | -1.70
* Cc1c(N2CC(N)C2)c(F)cn2c(=O)c(C(=O)O)cc(C3CC3)c12 | -1.30
* CC(=O)N[C@H]1C[C@H](C)N(c2nc3c(-c4ccc(F)cc4F)cc(C(=O)O)c(=O)n3cc2F)C1 | 0.49
* Cc1c(N2C[C@@H]3[C@@H](N)[C@@H]3C2)c(F)cn2c(=O)c(C(=O)O)cc(C3CC3)c12 | -1.70
